Attribution: patent US20250099420A1

# EC50 annotations
# Test system: parental HEK cells
# procedure details: HEK parental Agonist Counterscreen Assay (non-transfected cells)
# Format: cell-based
# condition label: Homo sapiens, HEK293; HEK Agonist Activity section of Table 4 (parental HEK counterscreen)

Previously resolved entries follow.
CC1(c2ccc3c(c2)OCCO3)NC(=O)C(CC(=O)NCC2CCCCC2)C1=O (stereo not drawn) ... > 15.4 µM
O=C(CC1C(=O)N(c2ccccc2)C(=O)N1Cc1ccc2c(c1)OCO2)Nc1ccc(Cl)cc1 (stereo not drawn) ... > 11.9 µM
O=C(NCc1csc(-c2cccs2)n1)C1CC(Cc2ccc3c(c2)OCO3)=NO1 (stereo not drawn) ... > 14.1 µM
O=C(O)CC1CCCC1c1ccccc1 (stereo not drawn) ... > 14.1 µM
COc1cc(C(=O)NCCn2ccc3ccccc32)cc(OC)c1OC ... > 14.1 µM

// switching to the query compound
stdin: Entry under review: O=C(NC1CC1)C1CC(Cc2cccc3ccccc23)=NO1 (stereo not drawn) . Reported EC50?
stdout: > 14.1 µM

* * *

# GPR139 Antagonist Activity Hill Slope annotations
# tested on: GPR139 (Homo sapiens)
# procedure details: GPR139 Antagonist titration assay (calcium detection, HEK-GPR139 cells, vs EC80 of S-JNJ-63533054)
# condition label: fitted dose-response curve
Just the number.

Previously resolved entries follow.
O=C(NCCCN1CCCC1=O)c1ccc(NCc2ccc(F)cc2)c(S(=O)(=O)Nc2cccc(C(F)(F)F)c2)c1 ... 0.63
Cc1cccc(-n2cc(-c3ccccc3)nc2SCC(=O)Nc2ccccc2C)c1 ... 0.57

// switching to the query molecule
stdin: Entry under review: `COc1ccccc1CNC(=O)N1c2ccccc2Sc2ccccc21` . Reported GPR139 Antagonist Activity Hill Slope?
stdout: 0.52

* * *

# System: parental HEK cells
# procedure details: HEK parental Agonist Counterscreen Assay (non-transfected cells)
# Type: cell-based
# condition label: HEK Agonist Activity section
# Lipophilic Efficiency (logP) annotations

Previously resolved entries follow.
COc1cc(-c2noc(CCC(=O)Nc3cccc(C)c3C)n2)cc(OC)c1OC ... 0.80
CC(NC(=O)CN1CCN(Cc2ccc(Cl)cc2)C1=O)c1ccccc1 (stereo not drawn) ... 2.13
CCN1CCCc2cc(CCNC(=O)Nc3ccccc3)ccc21 ... 0.79
Cc1ccccc1CS(=O)(=O)CCC(=O)NC(C)c1ccccc1 (stereo not drawn) ... 2.34
O=C(CN1CCCN(Cc2ccc(F)cc2Cl)C1=O)NC1CCCC1 ... 2.71

stdin: Entry under review: `O=C(CSc1ccc(Cl)cc1)NNC(=O)c1ccc([N+](=O)[O-])cc1` . Reported Lipophilic Efficiency (logP)?
stdout: 2.08

stdin: Entry under review: `CCOC(=O)N1CCC2=C(CC(NC(=O)Cc3cccc4ccccc34)=C2C(C)=O)C1` . Reported Lipophilic Efficiency (logP)?
stdout: 1.05

stdin: Entry under review: O=C(NC1CC1)C1CC(Cc2cccc3ccccc23)=NO1 (stereo not drawn) . Reported Lipophilic Efficiency (logP)?
stdout: 2.02

stdin: Entry under review: `O=C(CCc1nc2cccnc2n1Cc1cccs1)NCCc1cccs1` . Reported Lipophilic Efficiency (logP)?
stdout: 1.29

* * *

# tested on: GPR139 (Homo sapiens, UniProt Q6DWJ6)
# Sequence (Q6DWJ6 whole entry): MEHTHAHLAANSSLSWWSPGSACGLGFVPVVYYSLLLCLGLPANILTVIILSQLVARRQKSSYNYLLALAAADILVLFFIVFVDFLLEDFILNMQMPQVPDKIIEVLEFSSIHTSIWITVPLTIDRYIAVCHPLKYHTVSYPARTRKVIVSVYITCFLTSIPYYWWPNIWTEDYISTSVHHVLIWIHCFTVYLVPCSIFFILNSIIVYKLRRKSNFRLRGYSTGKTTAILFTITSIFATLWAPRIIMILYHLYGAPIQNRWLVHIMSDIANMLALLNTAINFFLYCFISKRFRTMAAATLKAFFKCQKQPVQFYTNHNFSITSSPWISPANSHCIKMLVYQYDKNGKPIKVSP
# procedure details: GPR139 Agonist titration / agonist counterscreen assay (calcium detection, HEK-GPR139 cells)
# Type: cell-based
# Parameters: expressed in transfected cells; host or cells: HEK Aequorin cells, Maxcyte transient transfection
# condition label: GPR139 Agonist Activity; based on logP
Strictly below 5 in Lipophilic Efficiency (logP): label 1. Otherwise: label 0.

Before answering, review these 2 worked examples.
Cc1cccc(NC(=O)Cn2ncc3c2-c2ccccc2OC3)n1 [SR-01000135038] ... label 0
COc1cc(C(C)=O)ccc1OCC(=O)NC(C)CCc1ccccc1 (stereo not drawn) [SR-01000048295] ... label 1

stdin: Consider CC(NC(=O)Cn1ncc2ccccc21)c1ccc2c(c1)OCCO2 (stereo not drawn) [SR-01000152760] . Does its Lipophilic Efficiency (logP) lie strictly below 5?
stdout: label 1

stdin: Consider CC1CC(C)CN(C(=O)C2C3C=CC4(CN(Cc5ccccc5Cl)C(=O)C24)O3)C1 (stereo not drawn) [SR-01000583192] . Does its Lipophilic Efficiency (logP) lie strictly below 5?
stdout: label 1

stdin: Consider O=C(CCc1nc2ccccc2s1)NNC(=O)C1CCCCC1 [SR-01000068916] . Does its Lipophilic Efficiency (logP) lie strictly below 5?
stdout: label 1

stdin: Consider CC1(c2ccc(Cl)cc2)NC(=O)N(CC(=O)NCc2cccs2)C1=O (stereo not drawn) [SR-01000058107] . Does its Lipophilic Efficiency (logP) lie strictly below 5?
stdout: label 0

stdin: Consider COc1ccccc1CC1(C)NC(=O)N(CC(=O)NC(C)c2cccc(Cl)c2)C1=O (stereo not drawn) [SR-01000069564] . Does its Lipophilic Efficiency (logP) lie strictly below 5?
stdout: label 1
